Test system: Mycobacterium tuberculosis
Test: Antimicrobial activity against Mycobacterium tuberculosis H37RvMA under GAST/Fe medium assessed as growth inhibition after 14 days by alamar blue assay
Type: functional
Settings: 336 h
// MIC90 lookup, one value per entry
READOUT_LABEL: MIC90 (µM)

| COMPOUND | READOUT_LABEL | RELATION_SYMBOL | MEASURED_RESULT |
| --- | --- | --- | --- |
| Cc1noc(-c2nc(C)c3c(c2N)C(=O)N(Cc2ccc(OC(F)(F)F)cc2)C3=O)n1 | MIC90 | = | 0.62 |
| CCOC(=O)c1nc(C)c2c(c1N)C(=O)N(c1ccccc1)C2=O | MIC90 | > | 160 |
| Cc1noc(-c2nc(C)c3c(c2N)C(=O)N(Cc2ccc(SC(F)(F)F)cc2)C3=O)n1 | MIC90 | = | 1.2 |
| Cc1noc(-c2nc(C)c3c(c2N)C(=O)N(C(C)c2ccccc2)C3=O)n1 (stereo not given) | MIC90 | = | 1.25 |
| Cc1noc(-c2nc(C)c3c(c2N)C(=O)N(Cc2ccc(OC(F)F)cc2)C3=O)n1 | MIC90 | < | 0.156 |
| CCCOC(=O)c1nc(C)c2c(c1N)C(=O)N(Cc1ccccc1)C2=O | MIC90 | < | 0.156 |
| Cc1noc(-c2nc(C)c3c(c2N)C(=O)N(Cc2cccc(F)c2)C3=O)n1 | MIC90 | < | 0.156 |
| Cc1noc(-c2nc(C)c3c(c2N)C(=O)N(Cc2ccc(Br)cc2)C3=O)n1 | MIC90 | < | 0.156 |
| Cc1noc(-c2nc(C)c3c(c2N)C(=O)N(Cc2ccc(F)cc2)C3=O)n1 | MIC90 | = | 0.31 |
| Cc1nc(C(=O)OC2CC2)c(N)c2c1C(=O)N(Cc1ccccc1)C2=O | MIC90 | = | 1.25 |
| Cc1noc(-c2nc(C)c3c(c2N)C(=O)N(Cc2ccc(C(F)(F)F)cc2)C3=O)n1 | MIC90 | = | 20 |
| Cc1noc(-c2nc(C)c3c(c2N)C(=O)N(Cc2cccc(C(F)(F)F)c2)C3=O)n1 | MIC90 | < | 0.156 |
| Cc1noc(-c2nc(C)c3c(c2N)C(=O)N(Cc2ccc(C(N)=O)cc2)C3=O)n1 | MIC90 | > | 160 |
| Cc1noc(-c2nc(C)c3c(c2N)C(=O)N(Cc2ccc(Cl)cc2)C3=O)n1 | MIC90 | = | 0.62 |
| COc1ccc(CN2C(=O)c3c(C)nc(-c4nc(C)no4)c(N)c3C2=O)cc1 | MIC90 | < | 0.156 |
| Cc1noc(-c2nc(C)c3c(c2N)C(=O)N(Cc2ccc(S(C)(=O)=O)cc2)C3=O)n1 | MIC90 | = | 0.31 |
| Cc1nc(C(N)=O)c(N)c2c1C(=O)N(Cc1ccccc1)C2=O | MIC90 | > | 160 |
| Cc1noc(-c2nc(C)c3c(c2N)C(=O)N(Cc2ccc(-n4cccn4)cc2)C3=O)n1 | MIC90 | = | 40 |
| Cc1noc(-c2nc(C)c3c(c2N)C(=O)N(Cc2cccc(OC(F)(F)F)c2)C3=O)n1 | MIC90 | = | 0.0637 |
| Cc1noc(-c2nc(C)c3c(c2N)C(=O)N(Cc2ccccc2C(F)(F)F)C3=O)n1 | MIC90 | > | 160 |
| COC(=O)c1nc(C)c2c(c1N)C(O)N(Cc1ccccc1)C2=O (stereo not given) | MIC90 | = | 2.5 |
| Cc1noc(-c2nc(C)c3c(c2N)C(=O)N(Cc2ccc(Oc4ccc(F)cc4)cc2)C3=O)n1 | MIC90 | < | 0.156 |
| Cc1noc(-c2nc(C)c3c(c2N)C(=O)N(Cc2ccccc2)C3=O)n1 | MIC90 | = | 0.625 |
| Cc1nc(C#N)c(N)c2c1C(=O)N(Cc1ccccc1)C2=O | MIC90 | > | 160 |
| Cc1noc(-c2nc(C)c3c(c2N)C(=O)N(Cc2ccccc2Cl)C3=O)n1 | MIC90 | = | 1.25 |
| Cc1noc(-c2nc(C)c3c(c2N)C(=O)N(CC2CCNCC2)C3=O)n1 | MIC90 | > | 160 |
| Cc1nc(-c2nc(C(F)(F)F)no2)c(N)c2c1C(=O)N(Cc1ccccc1)C2=O | MIC90 | = | 20 |
| Cc1noc(-c2nc(C)c3c(c2N)C(=O)N(Cc2ccc(-c4ccncc4)cc2)C3=O)n1 | MIC90 | = | 160 |
| Cc1noc(-c2nc(C)c3c(c2N)C(=O)N(Cc2ccc(C#N)cc2)C3=O)n1 | MIC90 | > | 160 |
| COc1cccc(CN2C(=O)c3c(C)nc(-c4nc(C)no4)c(N)c3C2=O)c1 | MIC90 | < | 0.156 |
| Cc1noc(-c2nc(C)c3c(c2N)C(=O)N(CC2CCOCC2)C3=O)n1 | MIC90 | = | 20 |
| CCOC(=O)c1nc(C)c2c(c1N)C(=O)N(Cc1ccccc1)C2O (stereo not given) | MIC90 | = | 0.144 |
| CCOC(=O)c1ncc2c(c1N)C(=O)N(Cc1ccccc1)C2=O | MIC90 | = | 20 |
| Cc1nc(C(=O)NC#N)c(N)c2c1C(=O)N(Cc1ccccc1)C2=O | MIC90 | > | 160 |
| Cc1noc(-c2nc(C)c3c(c2N)C(=O)N(Cc2ccccc2F)C3=O)n1 | MIC90 | = | 0.3 |
| Cc1noc(-c2nc(C)c3c(c2N)C(=O)N(Cc2ccc(CO)cc2)C3=O)n1 | MIC90 | = | 0.62 |
| Cc1noc(-c2nc(C)c3c(c2N)C(=O)N(Cc2ccc(N(C)C)cc2)C3=O)n1 | MIC90 | = | 20 |
| Cc1noc(-c2nc(C)c3c(c2N)C(=O)N(Cc2cccc(Cl)c2)C3=O)n1 | MIC90 | < | 0.156 |
| Cc1nc(C(=O)N(C)C)c(N)c2c1C(=O)N(Cc1ccccc1)C2=O | MIC90 | > | 160 |
| COc1ccccc1CN1C(=O)c2c(C)nc(-c3nc(C)no3)c(N)c2C1=O | MIC90 | = | 0.31 |

###

Assay: Metabolic stability in human liver S9 fractions assessed as residual compound at 0.1 uM after 40 mins by LC-MS/MS method in presence or absence of NADPH
Format: ADME
Conditions: read-out: Stability
// remaining at 40 min, 0.1 µM lookup, one value per entry
READOUT_LABEL: remaining at 40 min, 0.1 µM (%)

| STRUCTURE_AS_SMILES | READOUT_LABEL | U | MEASURED_RESULT |
| --- | --- | --- | --- |
| Cc1noc(-c2nc(C)c3c(c2N)C(=O)N(Cc2cccc(OC(F)(F)F)c2)C3=O)n1 | remaining at 40 min, 0.1 µM | % | 93 |
| Cc1noc(-c2nc(C)c3c(c2N)C(=O)N(Cc2cccc(Cl)c2)C3=O)n1 | remaining at 40 min, 0.1 µM | % | 97 |

###

Experiment: Tmax in anesthetized C57/BL6 mouse at 5 mg/kg, iv by LC-MS method
Assay type: ADME, organism-based
Conditions: in vivo

| STRUCTURE_AS_SMILES | Tmax |
| --- | --- |
| Cc1noc(-c2nc(C)c3c(c2N)C(=O)N(Cc2cccc(Cl)c2)C3=O)n1 | 10.2 min |

###

Test system: Mycobacterium tuberculosis
Assay: Antimicrobial activity against Mycobacterium tuberculosis H37RvMA under GAST/Fe medium assessed as growth inhibition after 14 days by alamar blue assay
Type: functional
Details: 336 h
READOUT_LABEL: MIC90

| STRUCTURE_AS_SMILES | MEASURED_RESULT |
| --- | --- |
| Cc1nc(C(=O)NO)c(N)c2c1C(=O)N(Cc1ccccc1)C2=O | > 160 µM |
| Cc1nnc(-c2nc(C)c3c(c2N)C(=O)N(Cc2ccccc2)C3=O)o1 | > 160 µM |
| Cc1noc(-c2nc(C)c3c(c2N)C(=O)N(Cc2ccc(N4CCCC4=O)cc2)C3=O)n1 | > 160 µM |
